I'd be grateful if you could share measured residual activity for these entries.
- assayed target: MAP3K7 TAB1 (human) (UniProt O43318+Q15750)
- Sequence (O43318 whole entry, looked up): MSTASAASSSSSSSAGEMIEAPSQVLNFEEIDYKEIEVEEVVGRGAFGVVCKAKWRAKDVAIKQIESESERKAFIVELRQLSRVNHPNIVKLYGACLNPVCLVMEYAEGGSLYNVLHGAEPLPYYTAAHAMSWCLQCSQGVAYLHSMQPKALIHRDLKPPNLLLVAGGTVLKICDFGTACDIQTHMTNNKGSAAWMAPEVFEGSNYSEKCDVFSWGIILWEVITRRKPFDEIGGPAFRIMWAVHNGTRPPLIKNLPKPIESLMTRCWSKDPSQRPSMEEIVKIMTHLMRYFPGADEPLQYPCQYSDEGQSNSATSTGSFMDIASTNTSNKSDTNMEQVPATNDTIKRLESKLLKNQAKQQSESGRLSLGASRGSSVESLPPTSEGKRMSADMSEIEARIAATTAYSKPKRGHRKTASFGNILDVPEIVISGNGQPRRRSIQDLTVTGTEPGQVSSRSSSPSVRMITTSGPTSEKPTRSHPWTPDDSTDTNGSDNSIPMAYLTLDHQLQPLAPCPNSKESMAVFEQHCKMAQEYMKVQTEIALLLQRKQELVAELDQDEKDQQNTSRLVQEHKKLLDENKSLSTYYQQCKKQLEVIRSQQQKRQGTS
- Sequence (Q15750 whole entry, looked up): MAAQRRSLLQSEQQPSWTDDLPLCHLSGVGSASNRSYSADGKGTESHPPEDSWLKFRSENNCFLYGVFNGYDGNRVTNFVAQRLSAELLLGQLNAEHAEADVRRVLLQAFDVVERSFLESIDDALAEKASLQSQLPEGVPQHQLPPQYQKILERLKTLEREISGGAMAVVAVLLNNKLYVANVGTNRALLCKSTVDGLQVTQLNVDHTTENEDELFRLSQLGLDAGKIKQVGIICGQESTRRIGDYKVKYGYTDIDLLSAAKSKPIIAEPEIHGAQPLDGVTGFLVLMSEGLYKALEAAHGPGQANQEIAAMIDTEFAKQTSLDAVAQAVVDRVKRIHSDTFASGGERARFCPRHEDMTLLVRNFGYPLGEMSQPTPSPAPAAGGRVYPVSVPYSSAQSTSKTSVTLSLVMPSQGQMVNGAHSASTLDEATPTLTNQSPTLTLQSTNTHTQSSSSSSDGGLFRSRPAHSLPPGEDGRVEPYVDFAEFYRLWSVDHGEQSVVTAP
- test method notes: radiometric filter-binding kinase assay, Kinase HotSpot
- study conditions: compound 0.5 µM; ATP 10 µM
Answers are plain numbers, in %.

| structure notation | residual activity [%] |
| --- | --- |
| N#C/C(=C1/Nc2ccccc2S1)c1ccnc(NCCc2cccnc2)n1 | 91.5 |
| O=C1NC(=O)c2c1c1c3ccccc3[nH]c1c1[nH]c3cc(Br)ccc3c21 | 91.4 |
| COc1cccc(-c2cc(=O)c3ccccc3o2)c1N | 98.7 |
| Cc1cc(Nc2nc(-c3ccccc3)nc3ccccc23)n[nH]1 | 78.3 |
| O=c1[nH]c2ccccc2n1C1CCN(Cc2ccc(-c3nc4cc5[nH]cnc5cc4nc3-c3ccccc3)cc2)CC1 | 84.1 |

Please look at the items below and tell me residual activity for each one, in order.
1. CCOc1cc2ncnc(Nc3cccc(Br)c3)c2cc1OCC
2. CCc1nc(-c2ccc(OC)cc2)[nH]c1-c1ccncc1
3. CCCCc1c(-c2ccc(O)cc2)[nH]c2nccnc12
4. O=S(=O)(NCCNC/C=C/c1ccc(Br)cc1)c1cccc2cnccc12
5. c1ccc(-c2cnc(Nc3ccc(OCCN4CCCC4)cc3)s2)cc1
6. O=c1c2ccccc2[nH]c(=S)n1CCN1CCC(=C(c2ccc(F)cc2)c2ccc(F)cc2)CC1
7. Cn1cc(/C=C2\C(=O)Nc3ccc(S(N)(=O)=O)cc32)c2ccccc21

102
96.6
80.3
109
102
103
48.9

Source listed as the kinase profiling compilation of Christmann-Franck et al. (2016).
